- System: despinalisierten Meerschweinchen
- test-name: Positive inotropic effect in despinalised guinea pigs (LV-dp/dtmax, i.v. injection)
- Format: in vivo
- measurement-parameters: Cavia porcellus, iv; 1 mg/kg i.v.; mean values, each substance tested in 3 despinalised guinea pigs; read-out: Zunahme in LV-dp/dtmax
property: change in vivo at 1 mg/kg
Write the numeric value and append its unit.

Hi team, please reply with change in vivo at 1 mg/kg for each item in this list.
1. COc1ccc(-c2cn3cc[nH]c(=O)c3n2)cc1 [Substanz B]
2. COc1cc(S(=O)(=O)N(C)C)ccc1-c1cn2ccc(=O)[nH]c2n1 [Substanz F]
3. CN(C)S(=O)(=O)c1ccc(-c2cn3ccc(=O)[nH]c3n2)cc1 [Substanz A]
4. COc1cc(C#N)ccc1-c1cn2ccc(=O)[nH]c2n1 [Substanz E]
5. CNS(=O)(=O)c1ccc(-c2cn3ccc(=O)[nH]c3n2)c(OC)c1 [Substanz G]

["45%", "47%", "32%", "44%", "75%"]

----------
Give measured change in vivo at 1 mg/kg for each item. Keep answers brief.
- Test system: despinalisierten Meerschweinchen
- test-name: Positive inotropic effect in despinalised guinea pigs (LV-dp/dtmax, i.v. injection)
- Type: in vivo
- measurement-parameters: Cavia porcellus, iv; 1 mg/kg i.v.; mean values, each substance tested in 3 despinalised guinea pigs; read-out: Zunahme in LV-dp/dtmax
Numbers only, in %.

Use these answered entries as a reference point.
compound	value
COc1cc(OS(C)(=O)=O)ccc1-c1cn2cc[nH]c(=O)c2n1 [Substanz I]	98
COc1ccc(-c2cn3c(=O)[nH]c(=O)[nH]c3n2)cc1 [Substanz C]	86

Hi team, please reply with change in vivo at 1 mg/kg for each item in this list.
1. COc1cc(C(=O)N(C)C)ccc1-c1cn2ccc(=O)[nH]c2n1 [Substanz H]
2. COc1cc(OS(C)(=O)=O)ccc1-c1cn2ccc(=O)[nH]c2n1 [Substanz D]

1: 33; 2: 63
